The origin of these recorded values is patent EP1935986B1.

I'd be grateful if you could share measured light emission values for these entries.
molecular target: QuantiLum Luciferase (Photinus pyralis, UniProt P08659); construct: purchased Promega Corporation E170; test: Scaffolds: light emission of luciferin derivatives with QuantiLum luciferase alone, + Co A, + DTT, + Co A and DTT; type: biochemical, firefly; details: Derivative Conc. 50; Alone
Sequence (P08659 whole entry): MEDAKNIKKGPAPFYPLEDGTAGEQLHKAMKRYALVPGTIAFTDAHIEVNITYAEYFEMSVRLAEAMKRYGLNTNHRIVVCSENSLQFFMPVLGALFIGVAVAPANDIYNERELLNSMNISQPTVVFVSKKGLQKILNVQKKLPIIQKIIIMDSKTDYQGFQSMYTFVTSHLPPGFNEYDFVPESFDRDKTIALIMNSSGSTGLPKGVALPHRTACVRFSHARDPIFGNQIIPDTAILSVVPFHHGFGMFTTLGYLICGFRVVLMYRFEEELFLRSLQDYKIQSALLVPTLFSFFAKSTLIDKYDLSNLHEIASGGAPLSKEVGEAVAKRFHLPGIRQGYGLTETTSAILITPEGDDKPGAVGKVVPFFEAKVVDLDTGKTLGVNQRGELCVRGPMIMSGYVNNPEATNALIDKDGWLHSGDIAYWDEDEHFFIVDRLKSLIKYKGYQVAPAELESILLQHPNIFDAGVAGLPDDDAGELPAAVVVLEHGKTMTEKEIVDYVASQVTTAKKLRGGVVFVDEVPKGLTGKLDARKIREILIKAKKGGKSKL
Reply with the value as a number alone.

Incoming: # input molecule: O=C(O)[C@H]1CSC(c2nc3ccc(OCCO)cc3s2)=N1 [2hydroxyethoxyluciferin ether] ; wanted: its light emission values
Outgoing: 38444

Incoming: Sample COC(=O)[C@H]1CSC(c2ccc3cc(Oc4ccc(C(F)(F)F)cc4[N+](=O)[O-])ccc3n2)=N1 [GST #4] — what was its light emission values?
Outgoing: 1598

Incoming: Data request, read-out light emission values, for O=C(O)[C@H]1CSC(c2ccc3cc(Oc4ccc(C(F)(F)F)cc4[N+](=O)[O-])ccc3n2)=N1 [GST #3]
Outgoing: 17409

Incoming: What value of light emission values has been recorded for this entry: NCCCOc1ccc2nc(C3=N[C@@H](C(=O)O)CS3)sc2c1 [MAO-3, 6-Aminopropoxyluciferin]
Outgoing: 179585

Incoming: # lookup: light emission values of CCN(CC)c1ccc2nc(C3=NC(C(=O)O)CS3)sc2c1 (centres unmarked) [diethylaminoluciferin]
Outgoing: 8176569

----------
molecular target: UniProtKB P04798; test: Two-step luminescent P450 screen of luciferin derivatives; settings: 50 µM substrate, 1 pmole P450, 37°C 30 minutes; result in words
Sequence (P04798 whole entry): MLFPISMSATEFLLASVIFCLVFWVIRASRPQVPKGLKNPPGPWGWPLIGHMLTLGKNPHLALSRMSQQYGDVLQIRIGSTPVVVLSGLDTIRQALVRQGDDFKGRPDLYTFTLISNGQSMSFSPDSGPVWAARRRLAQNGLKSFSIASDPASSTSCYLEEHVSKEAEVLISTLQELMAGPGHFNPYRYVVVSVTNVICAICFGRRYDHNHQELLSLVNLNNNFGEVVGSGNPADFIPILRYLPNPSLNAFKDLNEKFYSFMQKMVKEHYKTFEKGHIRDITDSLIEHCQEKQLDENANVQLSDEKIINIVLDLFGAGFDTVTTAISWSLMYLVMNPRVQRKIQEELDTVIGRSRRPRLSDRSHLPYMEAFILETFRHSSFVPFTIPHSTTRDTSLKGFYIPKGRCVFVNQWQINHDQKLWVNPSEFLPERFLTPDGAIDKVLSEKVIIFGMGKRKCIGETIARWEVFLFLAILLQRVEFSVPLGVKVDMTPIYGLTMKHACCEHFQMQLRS
RECORDED METRIC: P450 activity / selectivity with the derivative as substrate

{"COMPOUND": "COc1cc(OC)c2nc(C3=NC(C(=O)O)CS3)sc2c1 (stereo not shown) [4-(O-methyl)-6-(O-methyl)-luciferin]", "ENDPOINT VALUE": "preferred substrate"}
{"COMPOUND": "COc1cc(C)c2nc(C3=NC(C(=O)O)CS3)sc2c1 (stereo not shown) [4-methyl-6-(O-methyl)-luciferin]", "ENDPOINT VALUE": "preferred substrate"}

----------
molecular target: QuantiLum Luciferase (Photinus pyralis); construct: purchased Promega Corporation E170; assay: Scaffolds: light emission of luciferin derivatives with QuantiLum luciferase alone, + Co A, + DTT, + Co A and DTT; assay type: biochemical, firefly; settings: Derivative Conc. 25; Co A
// boundary case: light emission values equal to 600000 maps to not fulfilled; strictly smaller maps to fulfilled

Incoming: # strict comparison: is reported light emission values < 600000? input = O=C(O)[C@H]1CSC(c2ccc3cc(Oc4ccc(C(F)(F)F)cc4[N+](=O)[O-])ccc3n2)=N1 [GST #3]
Outgoing: fulfilled

Incoming: Bench note: check whether CN(Cc1ccccc1)c1ccc2nc(C3=NC(C(=O)O)CS3)sc2c1 (centres unmarked) [methylbenzylaminoluciferin] shows light emission values below 600000
Outgoing: not fulfilled

Incoming: In plain terms, does O=C(O)[C@H]1CSC(c2nc3ccc(OCc4ccccc4)cc3s2)=N1 [luciferin 6-benzyl ether, reference compound] come in under 600000 for light emission values?
Outgoing: fulfilled

Incoming: Lab note: light emission values threshold 600000. Does this molecule come in strictly under it? O=C(O)[C@H]1CSC(c2nc3ccc(OCCO)cc3s2)=N1 [2hydroxyethoxyluciferin ether]
Outgoing: fulfilled

Incoming: Quick check: light emission values of COC(=O)[C@H]1CSC(c2ccc3cc(Oc4ccc(C(F)(F)F)cc4[N+](=O)[O-])ccc3n2)=N1 [GST #4] under 600000?
Outgoing: fulfilled

Incoming: Say whether its light emission values is strictly beneath 600000. Entry: CCN(CC)c1ccc2nc(C3=NC(C(=O)O)CS3)sc2c1 (centres unmarked) [diethylaminoluciferin]
Outgoing: not fulfilled

Incoming: For COc1ccc2nc(C3=N[C@@H](C(=O)O)CS3)sc2c1 [luciferin 6-methyl ether, D-luciferin 6' methyl ether, reference compound] , is the recorded light emission values below the cut-off of 600000?
Outgoing: fulfilled

----------
molecular target: QuantiLum Luciferase (Photinus pyralis); construct: purchased Promega Corporation E170; assay: Scaffolds: light emission of luciferin derivatives with QuantiLum luciferase alone, + Co A, + DTT, + Co A and DTT; format: biochemical, firefly; settings: Derivative Conc. 25; Alone
Exercise: state measured light emission values for each of the compounds provided.
// print number alone

Incoming: Fill in: light emission values of O=C(O)[C@H]1CSC(c2nc3ccc(OCCO)cc3s2)=N1 [2hydroxyethoxyluciferin ether] is ___
Outgoing: 27356

Incoming: Give its light emission values value. Item: CCN(CC)c1ccc2nc(C3=NC(C(=O)O)CS3)sc2c1 (centres unmarked)
Outgoing: 6763022

Incoming: Give the measured light emission values of CN(Cc1ccccc1)c1ccc2nc(C3=NC(C(=O)O)CS3)sc2c1 (centres unmarked) .
Outgoing: 61572912

Incoming: Fill in: light emission values of `O=C(O)[C@H]1CSC(c2ccc3cc(Oc4ccc(C(F)(F)F)cc4[N+](=O)[O-])ccc3n2)=N1` is ___
Outgoing: 15957

Incoming: Form field: reported light emission values of `COC(=O)[C@H]1CSC(c2ccc3cc(Oc4ccc(C(F)(F)F)cc4[N+](=O)[O-])ccc3n2)=N1`
Outgoing: 1413

Incoming: # lookup: light emission values of `NCCCOc1ccc2nc(C3=N[C@@H](C(=O)O)CS3)sc2c1`
Outgoing: 272608

Incoming: So what's the measured light emission values for this one? COc1ccc2nc(C3=N[C@@H](C(=O)O)CS3)sc2c1 [luciferin 6-methyl ether, D-luciferin 6' methyl ether, reference compound]
Outgoing: 2083

Incoming: Which light emission values is listed for O=C(O)[C@H]1CSC(c2nc3ccc(OCc4ccccc4)cc3s2)=N1 [luciferin 6-benzyl ether, reference compound] ?
Outgoing: 40093

----------
biological target: QuantiLum Luciferase (Photinus pyralis, UniProt P08659); construct: purchased Promega Corporation E170; experiment: Scaffolds: light emission of luciferin derivatives with QuantiLum luciferase alone, + Co A, + DTT, + Co A and DTT; format: biochemical, firefly; details: Derivative Conc. 6.25; DTT
We use 100000 as the dividing line for light emission values: on or above the line is true (1), below is false (0).

Incoming: Hello, I need to know if CCN(CC)c1ccc2nc(C3=NC(C(=O)O)CS3)sc2c1 (centres unmarked) [diethylaminoluciferin] has measured light emission values not below 100000. Thanks!
Outgoing: true (1)

Incoming: Does the reported light emission values for COc1ccc2nc(C3=N[C@@H](C(=O)O)CS3)sc2c1 [luciferin 6-methyl ether, D-luciferin 6' methyl ether, reference compound] fall at or above the 100000 mark?
Outgoing: false (0)

Incoming: Hi, just wondering whether O=C(O)[C@H]1CSC(c2ccc3cc(Oc4ccc(C(F)(F)F)cc4[N+](=O)[O-])ccc3n2)=N1 [GST #3] shows light emission values of 100000 or higher.
Outgoing: false (0)

Incoming: # bool: light emission values of COC(=O)[C@H]1CSC(c2ccc3cc(Oc4ccc(C(F)(F)F)cc4[N+](=O)[O-])ccc3n2)=N1 [GST #4] >= 100000
Outgoing: false (0)

Incoming: Exam item: decide whether the reported light emission values for NCCCOc1ccc2nc(C3=N[C@@H](C(=O)O)CS3)sc2c1 [MAO-3, 6-Aminopropoxyluciferin] is at least 100000.
Outgoing: true (1)

Incoming: Please tell me: is the compound O=C(O)[C@H]1CSC(c2nc3ccc(OCCO)cc3s2)=N1 [2hydroxyethoxyluciferin ether] at or over 100000 in terms of light emission values?
Outgoing: false (0)

Incoming: Given the entry CN(Cc1ccccc1)c1ccc2nc(C3=NC(C(=O)O)CS3)sc2c1 (centres unmarked) [methylbenzylaminoluciferin] , answer whether its light emission values meets or surpasses 100000.
Outgoing: true (1)

----------
target: QuantiLum Luciferase (Photinus pyralis); construct: purchased Promega Corporation E170; experiment: Scaffolds: light emission of luciferin derivatives with QuantiLum luciferase alone, + Co A, + DTT, + Co A and DTT; assay type: biochemical, firefly; details: Derivative Conc. 12.5; DTT
For each record, write down the corresponding light emission values.

Incoming: Which value of light emission values has been reported for COc1ccc2nc(C3=N[C@@H](C(=O)O)CS3)sc2c1 [luciferin 6-methyl ether, D-luciferin 6' methyl ether, reference compound] in the records?
Outgoing: 2961

Incoming: Need light emission values of O=C(O)[C@H]1CSC(c2nc3ccc(OCc4ccccc4)cc3s2)=N1 [luciferin 6-benzyl ether, reference compound] , thanks.
Outgoing: 94861

Incoming: Bench note: what light emission values did COC(=O)[C@H]1CSC(c2ccc3cc(Oc4ccc(C(F)(F)F)cc4[N+](=O)[O-])ccc3n2)=N1 [GST #4] show?
Outgoing: 1474

Incoming: Quick check: light emission values of O=C(O)[C@H]1CSC(c2nc3ccc(OCCO)cc3s2)=N1 [2hydroxyethoxyluciferin ether] ?
Outgoing: 61882

Incoming: Dear colleague, I am looking for the recorded light emission values of the following molecule: CN(Cc1ccccc1)c1ccc2nc(C3=NC(C(=O)O)CS3)sc2c1 (centres unmarked) [methylbenzylaminoluciferin]
Outgoing: 36663612

Incoming: Give the measured light emission values of CCN(CC)c1ccc2nc(C3=NC(C(=O)O)CS3)sc2c1 (centres unmarked) [diethylaminoluciferin] .
Outgoing: 682672

Incoming: For the molecule NCCCOc1ccc2nc(C3=N[C@@H](C(=O)O)CS3)sc2c1 [MAO-3, 6-Aminopropoxyluciferin] , what light emission values is on record?
Outgoing: 525765

Incoming: // returns reported light emission values for input O=C(O)[C@H]1CSC(c2ccc3cc(Oc4ccc(C(F)(F)F)cc4[N+](=O)[O-])ccc3n2)=N1 [GST #3]
Outgoing: 16587
